System: U2OS
ASSAY: Inhibition of Wnt/beta-catenin in human U2OS cells assessed as internalization of frizzled-GFP at 12.5 uM after 6 hrs by confocal microscopic analysis
Assay type: cell-based
Active and inactive are the calls of the source. The calls are words filed in the database; no cut-off is given here.
API: response.call in active, inactive

Hi, do you know how "O=S(=O)(Nc1ccc(C(F)(F)F)cc1Cl)c1cc(Cl)ccc1O" came out in this test?
inactive

Hi, do you know how "NC(=O)c1ccc(NC(=O)c2cc(Cl)ccc2O)cc1" came out in this test?
inactive

Hi, do you know how "O=C(NC(=O)c1cc(Cl)ccc1O)c1ccc(C(F)(F)F)cc1" came out in this test?
inactive

Hi, do you know how "O=c1oc2ccc(Cl)cc2c(=O)n1-c1ccc(C(F)(F)F)cc1" came out in this test?
active

Hi, do you know how "O=C(Nc1ccccc1)c1ccc(NC(=O)c2cc(Cl)ccc2O)cc1" came out in this test?
inactive

Hi, do you know how "O=C(Nc1ccc(Cl)c(Cl)c1)c1cc(Cl)ccc1O" came out in this test?
active

###

ASSAY: Lipophilicity, log P of the compound at pH <=4
Assay type: physicochemical
SETTINGS: octanol/water
REPORTED_METRIC: logP
Give bare numbers.

# lookup: logP of O=C(Nc1ccc([N+](=O)[O-])cc1Cl)c1cc(Cl)ccc1O [NICLOSAMIDE]
5.95

###

Test system: U2OS
ASSAY: Inhibition of Wnt/beta-catenin in human U2OS cells assessed as internalization of frizzled-GFP at 12.5 uM after 6 hrs by confocal microscopic analysis
Assay type: cell-based
Calls of active or inactive are those of the source. The rule behind the calls is not given here.
API: response.call in 1.0 = active, 0.0 = inactive

> print(dat)
                            molecule.smiles  group
1           O=C(Nc1cccc(Cl)c1)c1cc(Cl)ccc1O    1.0
2  CS(=O)(=O)c1ccc(NC(=O)c2cc(Cl)ccc2O)c(Cl)c1    0.0
3             O=C(Nc1ccccc1Cl)c1cc(Cl)ccc1O    0.0
4     O=C(Nc1cccc(C(F)(F)F)c1)c1cc(Cl)ccc1O    1.0

Hi, do you know how "O=C(Nc1ccc(F)c(Cl)c1)c1cc(Cl)ccc1O" came out in this test?
1.0

Hi, do you know how "O=C(c1ccccc1)c1ccc(NC(=O)c2cc(Cl)ccc2O)cc1" came out in this test?
0.0

Hi, do you know how "O=C(Nc1cc(Cl)cc(Cl)c1)c1cc(Cl)ccc1O" came out in this test?
1.0

Hi, do you know how "CCCCCCCC(=O)Oc1ccc(Cl)cc1C(=O)Nc1ccc([N+](=O)[O-])cc1Cl" came out in this test?
1.0

Hi, do you know how "O=C(Nc1ccccc1)c1cc(Cl)ccc1O" came out in this test?
0.0

Hi, do you know how "O=C(Nc1c(Cl)cccc1Cl)c1cc(Cl)ccc1O" came out in this test?
0.0

Hi, do you know how "CN(C(=O)c1cc(Cl)ccc1O)c1ccc(C(F)(F)F)cc1" came out in this test?
0.0

###

System: U2OS
ASSAY: Inhibition of Wnt/beta-catenin in human U2OS cells assessed as internalization of frizzled-GFP at 12.5 uM after 6 hrs by confocal microscopic analysis
Type: cell-based
Active and inactive are the calls of the source. The calls are words filed in the database; no cut-off is given here.
API: response.call in yes (1) (active), no (0) (inactive)

Consider the following illustrative entries.
> print(dat)
                            molecule.smiles  test.system    group
1         O=C(Nc1cc(Cl)ccc1Cl)c1cc(Cl)ccc1O         U2OS  yes (1)
2  CCOC(=O)Oc1ccc(Cl)cc1C(=O)Nc1ccc(C(F)(F)F)cc1Cl         U2OS  yes (1)
3    O=C(NCc1ccc(C(F)(F)F)cc1)c1cc(Cl)ccc1O         U2OS   no (0)

Consider the additional molecule presented here.
Hi, do you know how "O=C(Nc1ccc(F)cc1F)c1cc(Cl)ccc1O" came out in this test?
no (0)
